System: 282377-053-R-J1-PDC complex spheroids, viability
Assay Overview: Anticancer human tumor 282377-053-R-J1-PDC patient-derived colon adenocarcinoma cell line growth inhibition [GQUAD]
Setup Conditions: curve of first compound; second compound 1 µM
Known log10 of IC50 of a selection of molecules
Values are log10 of IC50 in nM.

Please review the following examples before continuing.
O=C(NO)c1cnc(N2CCN(S(=O)(=O)c3ccc4ccccc4c3)CC2)nc1 + Cc1cnc(CNC(=O)c2c(=O)c3ccc(N4CCCN(C)CC4)nc3n3c2sc2ccccc23)cn1 has a reported log10 of IC50 of 1.92

The molecule listed as CC(=O)O[C@H]1C(=O)[C@@]2(C)[C@H]([C@H](OC(=O)c3ccccc3)[C@]3(O)C[C@H](OC(=O)[C@H](O)[C@@H](NC(=O)c4ccccc4)c4ccccc4)C(C)=C1C3(C)C)[C@]1(OC(C)=O)CO[C@@H]1C[C@@H]2O + Cc1[nH]c2ccc(F)cc2c1-c1nc2c3cccnc3c3ncccc3c2[nH]1 has a reported log10 of IC50 of 2.79

// recorded log10 of IC50 for COc1cccc2c1C(=O)c1c(O)c3c(c(O)c1C2=O)CC(O)(C(=O)CO)CC3OC1CC(N)C(O)C(C)O1 (stereo not given) + Cc1[nH]c2ccc(F)cc2c1-c1nc2c3cccnc3c3ncccc3c2[nH]1 : 3.00

// recorded log10 of IC50 for CCc1c2c(nc3ccc(O)cc13)-c1cc3c(c(=O)n1C2)COC(=O)[C@]3(O)CC + CN(C)c1ccc(Nc2c3ccc(NC(=O)CCN4CCCC4)cc3nc3cc(NC(=O)CCN4CCCC4)ccc23)cc1 : 2.07

Moving on to the next molecule.
Recorded result, COc1cccc2c1C(=O)c1c(O)c3c(c(O)c1C2=O)CC(O)(C(=O)CO)CC3OC1CC(N)C(O)C(C)O1 (stereo not given) + Cc1cnc(CNC(=O)c2c(=O)c3ccc(N4CCCN(C)CC4)nc3n3c2sc2ccccc23)cn1 , log10 of IC50: 2.52

###

Test system: 282377-053-R-J1-PDC complex spheroids, viability
Assay Overview: Anticancer human tumor 282377-053-R-J1-PDC cell line growth inhibition [GQUAD];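 also: spheroids exposed to compounds for 7 days before readout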;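 as to viability, T/C: percent of vehicle DMSO control viability with 100% = untreated-like growth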
Setup Conditions: second compound 1 µM; first compound 3.16 µM; stronger effect = lower value
Please note: viability, T/C exactly at 60% is F. Only values below 60% get T.

Answered examples (5):
Ask: Does this compound meet the criterion viability, T/C < 60%? CC(C)(O)C1CCC(Nc2ccc3ncc(-c4cccc(C(F)(F)F)c4)n3n2)CC1 (stereo not drawn) + CN(C)c1ccc(Nc2c3ccc(NC(=O)CCN4CCCC4)cc3nc3cc(NC(=O)CCN4CCCC4)ccc23)cc1
Result: T

Ask: Consider CC(=O)O[C@H]1C(=O)[C@@]2(C)[C@H]([C@H](OC(=O)c3ccccc3)[C@]3(O)C[C@H](OC(=O)[C@H](O)[C@@H](NC(=O)c4ccccc4)c4ccccc4)C(C)=C1C3(C)C)[C@]1(OC(C)=O)CO[C@@H]1C[C@@H]2O + Cc1[nH]c2ccc(F)cc2c1-c1nc2c3cccnc3c3ncccc3c2[nH]1 . Does its viability, T/C lie strictly below 60%?
Result: T

Ask: Does the reported viability, T/C of the following compound sit strictly below 60%? COc1cc(C2c3cc4c(cc3C(OC3OC5COC(C)OC5C(O)C3O)C3COC(=O)C23)OCO4)cc(OC)c1O (stereo not drawn) + CN(C)c1ccc(Nc2c3ccc(NC(=O)CCN4CCCC4)cc3nc3cc(NC(=O)CCN4CCCC4)ccc23)cc1
Result: F

Ask: Hello, is viability, T/C of the following compound strictly smaller than 60%? C=CCn1c(=O)c2cnc(Nc3ccc(N4CCN(C)CC4)cc3)nc2n1-c1cccc(C(C)(C)O)n1 + Cc1cnc(CNC(=O)c2c(=O)c3ccc(N4CCCN(C)CC4)nc3n3c2sc2ccccc23)cn1
Result: T

Ask: Field: below-cutoff. Rule: recorded viability, T/C strictly less than 60%. Subject: Cc1cccc(N(C)C(=O)C2C(O)CCN2c2nc(C)cc(C(F)(F)F)c2C#N)c1 (stereo not drawn) + Cc1[nH]c2ccc(F)cc2c1-c1nc2c3cccnc3c3ncccc3c2[nH]1
Result: F

New cases:
Ask: Please indicate whether the reported viability, T/C of C=CC(=O)N1CCN(c2nc(=O)n(-c3c(C)ccnc3C(C)C)c3nc(-c4c(O)cccc4F)c(F)cc23)C(C)C1 (stereo not drawn) + CN(C)c1ccc(Nc2c3ccc(NC(=O)CCN4CCCC4)cc3nc3cc(NC(=O)CCN4CCCC4)ccc23)cc1 is strictly below 60%.
Result: F

Ask: Is it true that viability, T/C reported for O=c1[nH]cc(F)c(=O)[nH]1 + Cc1cnc(CNC(=O)c2c(=O)c3ccc(N4CCCN(C)CC4)nc3n3c2sc2ccccc23)cn1 is less than 60%?
Result: T

Ask: Does this compound meet the criterion viability, T/C < 60%? CC1COCCN1c1cc(-c2ccnn2C)c2ccnc(-c3ccn[nH]3)c2n1 (stereo not drawn) + Cc1[nH]c2ccc(F)cc2c1-c1nc2c3cccnc3c3ncccc3c2[nH]1
Result: T

Measured values drawn from PubChem BioAssay AID2060501 for this set.
